- TARGET_DESC: Serine/threonine-protein kinase mTOR (Homo sapiens, UniProt P42345)
- ASSAY_PROCEDURE: Inhibition of recombinant human mTOR by TR-FRET analysis
REPORTED_ENDPOINT: IC50

[Q] Given the entry "C[C@@H]1COCCN1c1cc(=O)n2c(n1)N(Cc1cncc(Cl)c1)[C@H](C(F)(F)F)CC2" , what IC50 was observed with Serine/threonine-protein kinase mTOR (Homo sapiens, UniProt P42345)?
[A] > 10 µM

---

- TARGET_DESC: Phosphatidylinositol 4,5-bisphosphate 3-kinase catalytic subunit beta isoform (Homo sapiens, UniProt P42338)
- Sequence (P42338 whole entry, canonical isoform): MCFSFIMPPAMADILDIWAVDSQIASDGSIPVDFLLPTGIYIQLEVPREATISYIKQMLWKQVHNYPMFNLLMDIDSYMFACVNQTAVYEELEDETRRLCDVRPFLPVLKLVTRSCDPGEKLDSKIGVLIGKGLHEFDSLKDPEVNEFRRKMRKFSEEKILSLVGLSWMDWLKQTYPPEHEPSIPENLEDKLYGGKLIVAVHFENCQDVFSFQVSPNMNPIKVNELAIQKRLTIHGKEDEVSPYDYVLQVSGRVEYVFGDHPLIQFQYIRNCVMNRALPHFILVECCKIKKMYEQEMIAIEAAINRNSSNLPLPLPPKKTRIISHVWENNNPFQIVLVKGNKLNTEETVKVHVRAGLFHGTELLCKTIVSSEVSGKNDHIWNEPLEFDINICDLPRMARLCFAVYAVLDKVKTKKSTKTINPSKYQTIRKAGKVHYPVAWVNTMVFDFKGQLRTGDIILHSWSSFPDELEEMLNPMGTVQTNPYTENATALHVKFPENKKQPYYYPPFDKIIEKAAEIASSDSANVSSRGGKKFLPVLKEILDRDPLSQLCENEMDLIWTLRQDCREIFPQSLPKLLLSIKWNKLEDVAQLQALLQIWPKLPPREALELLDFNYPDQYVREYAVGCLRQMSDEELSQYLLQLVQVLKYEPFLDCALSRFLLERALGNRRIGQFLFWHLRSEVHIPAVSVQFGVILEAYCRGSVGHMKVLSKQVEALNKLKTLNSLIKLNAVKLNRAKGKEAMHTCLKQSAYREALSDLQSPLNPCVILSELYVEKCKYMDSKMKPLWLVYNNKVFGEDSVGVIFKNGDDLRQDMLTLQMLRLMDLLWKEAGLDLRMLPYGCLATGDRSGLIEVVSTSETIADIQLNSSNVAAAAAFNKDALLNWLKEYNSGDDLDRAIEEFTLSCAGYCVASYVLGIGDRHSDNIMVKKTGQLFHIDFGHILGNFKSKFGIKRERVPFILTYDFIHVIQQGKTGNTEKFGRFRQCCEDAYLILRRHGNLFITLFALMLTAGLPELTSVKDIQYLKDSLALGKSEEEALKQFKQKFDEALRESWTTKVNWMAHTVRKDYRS
- ASSAY_PROCEDURE: Inhibition of recombinant human PI3Kbeta by TR-FRET analysis
pIC50: −log10 of the molar value.
REPORTED_ENDPOINT: pIC50

[Q] Endpoint output: pIC50 of "C[C@@H]1COCCN1c1cc(=O)n2c(n1)N(Cc1cncc(Cl)c1)[C@H](C(F)(F)F)CC2" . Value?
[A] < 5.00
